tested on: RXF 393 renal; assay: NCI tumour cell line growth inhibition, 48 h
Each entry below carries its reported TGI.
Numbers only; they are read as µM.

Recorded results for 3 compounds are shown here.
CC1CC[C@@]2(OC1)OC1C[C@H]3[C@@H]4CC[C@H]5CC(OC6OC(CO)C(OC7OC(CO)C(O)C(O)C7O)C(O)C6O)CCC5(C)[C@H]4CCC3(C)C1[C@@H]2C (stereo not given in full) ... 19.8
CC(C)N1CSC(=S)N(Cc2ccccc2)C1 ... 6.27
C=C[C@]1(C)C=C2C(=O)[C@@]3(O)OC[C@@]4(CCCC(C)(C)C43O)C2(O)C(O)C1 (stereo not given in full) ... 3.48

Please look at the following compound next.
**Q:** What value of measured TGI is listed for COc1ccc(/C=C2\CCCC3=C2NC(C)=NC3c2ccc(OC)c(OC)c2)cc1OC (stereo not given) ?
**A:** 16.3

* * *

Parameter: GI50. Scope: all listed entries.
system: ACHN renal; assay: NCI tumour cell line growth inhibition, 48 h

N#CC1C(N)=NNC12Nc1ccccc1N2 (centres undefined) ... 34.9 µM
COc1ccc(-c2ccc(/C=N/n3c(COc4ccc(Cl)cc4)n[nH]c3=S)o2)c([N+](=O)[O-])c1 ... 17.2 µM
CCOC(=O)c1c(C)n(Cc2ccc(Cl)cc2Cl)c2c1cc1oc(=O)c(=O)n3c(Cc4ccccc4)nc2c13 ... 3.06 µM
CCc1c[nH]c2ncnc(N3CC[C@@](N)(CNC(=O)c4ccc(F)cc4F)C3)c12 ... 23.8 µM
COC(=O)[C@@H]1CCCN1C(=O)[C@@H]1CCCN1C(=O)[C@@H](Cc1c[nH]c2ccccc12)NC(=S)Nc1cc(C(F)(F)F)cc(C(F)(F)F)c1 ... 4.28 µM

**Q:** Fill blank: measured GI50 of the compound C=C(C)CCC(C)N1CCC(N2CCC(C(=O)NCCc3ccccc3)CC2)CC1 (centres undefined) is ____.
**A:** 17.2 µM

**Q:** How about this compound: S=c1ssc(Sc2ccccn2)c1Cl
**A:** 4.62 µM

**Q:** // next record COc1ccc2c(c1)C(=O)c1c-2n(CCCN2CCOCC2)c(=O)c2ccccc12
**A:** 1.69 µM

**Q:** Same again, this time with CCN1C(=O)N(CC)C2C1NN=c1s/c(=C3\C(=O)N(C)c4ccccc43)c(=O)n12 (centres undefined)
**A:** 0.752 µM

* * *

test system: SK-OV-3 ovarian; assay: NCI tumour cell line growth inhibition, 48 h
measured parameter: TGI

**Q:** Entry Cn1c(=O)nc2n(-c3ccc(Cl)cc3Cl)c3ccccc3nc-2c1=O has what TGI?
**A:** 72.8 µM

**Q:** What about this compound? Cc1ccc(C(=O)C#Cc2cn(C3CC(O)C(CO)O3)c(=O)[nH]c2=O)cc1 (stereo not given)
**A:** > 100 µM

* * *

system: BT-549 breast; assay: NCI tumour cell line growth inhibition, 48 h
Entries annotated with measured TGI
Hi! Could you send only the number? It should be in µM, unit omitted.

**Q:** Could you share which TGI value was measured for Fc1ccc(Nc2nc(NCCNc3ccnc4cc(Cl)ccc34)nc(N3CCOCC3)n2)cc1 ?
**A:** 22

* * *

tested on: CCRF-CEM leukemia; assay: NCI tumour cell line growth inhibition, 48 h; in the data active = GI50 below about 0.43 µM; inactive = the rest
Your reply should match one of these outcome classes. active, inactive

**Q:** Returns: the outcome recorded for CCOC(=O)c1cnn(-c2ccnc3c(C(F)(F)F)cccc23)c1N in this assay.
**A:** inactive

**Q:** // repeat for CCc1c[nH]c2ncnc(N3CC[C@@](N)(CNC(=O)c4ccc(F)cc4F)C3)c12 and report
**A:** inactive
